# assayed-target: T1, Vinexin β SH3.3 domain (third SH3 domain of the Vinexin β protein) (UniProt O60504 612-671)
# T1 construct: Vinexin β, third SH3 domain (SH3.3); 15N-labelled for the titrations; source: E. coli, GST fusion protein (pGEX plasmids), thrombin cleavage, purified (size-exclusion chromatography)
# T1 sequence (looked up): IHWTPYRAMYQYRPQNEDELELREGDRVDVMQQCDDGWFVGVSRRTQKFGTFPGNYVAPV
# method: NMR titration; same kind of titration, 298 K; only the 1H-15N chemical shift perturbations of the SH3 domain fitted, 1:1 model
# recorded-conditions: both partners purified
Square brackets hold non-standard residues; d marks the D form. Ends that are not written are not given here. Pro(trans-4-F) = O=C(O)[C@@H]1C[C@@H](F)CN1; Pro(cis-4-F) = O=C(O)[C@@H]1C[C@H](F)CN1
quantity-name: Kd (µM)
Give your result in µM as a bare value.

query: Record request: Kd value, item PPP[Pro(trans-4-F)]PSP[Pro(cis-4-F)]PPPRVYK (P at 4 and 8 stand for fluoroprolines; source: synthetic peptide (Fmoc solid-phase synthesis, reversed-phase HPLC)) [MpRS peptide]
result: 220

query: Record request: Kd value, item PPP[Pro(cis-4-F)]PSP[Pro(trans-4-F)]PPPRVYK (P at 4 and 8 stand for fluoroprolines; Two segments of five prolines separated by one serine, followed by RVYK; source: synthetic peptide (Fmoc solid-phase synthesis, reversed-phase HPLC)) [MpSR peptide]
result: 75

query: Record request: Kd value, item PPPPPSPPPPPRVYK (Synthetic RAR-gamma-based peptide. Sequence converted from the three-letter residue list in Table 1 (Pro1-5, Ser6, Pro7-11, Arg12-Val13-Tyr14-Lys15), with plain proline at positions 4 and 8. The …) [non-fluorinated reference peptide]
result: 74

Data origin: paper PMC10539733
